- ASSAYED TARGET: Androgen Receptor (Homo sapiens, UniProt P10275)
- Construct: endogenous in cells; host or cells: VCaP cells
- TEST METHOD NOTES: Androgen Receptor ELISA assay (PathScan AR ELISA) in VCaP cells: AR degradation, Dmax and DC50
- Assay type: cell-based
- STUDY CONDITIONS: read-out: VCaP DC50; VCaP cells; Table 34
Here, each record is paired with measured DC50 data.

// known answers, use as guide
Any idea what DC50 was measured for Cc1ncsc1-c1ccc(CNC(=O)[C@@H]2C[C@@H](O)CN2C(=O)[C@@H](NC(=O)COc2ccc3cc(COc4ccc(N5C(=S)N(c6ccc(C#N)c(C(F)(F)F)c6)C(=O)C5(C)C)cc4)ccc3c2)C(C)(C)C)cc1 ?
< 50 nM

Any idea what DC50 was measured for CC(C)(C)[C@H](NC(=O)COCCCOCCCCOc1ccc(N2C(=S)N(c3cc(Cl)c(C#N)cc3F)C(=O)C2(C)C)cc1)C(=O)N1C[C@H](O)C[C@H]1C(=O)NCc1ccc(-c2cnco2)cc1 ?
< 50 nM

Any idea what DC50 was measured for Cc1ncsc1-c1ccc(CNC(=O)[C@@H]2C[C@@H](O)CN2C(=O)[C@@H](NC(=O)C(C)Oc2ccc(OCCOc3ccc(N4C(=S)N(c5ccc(C#N)c(C(F)(F)F)c5)C(=O)C4(C)C)cc3)cc2)C(C)(C)C)cc1 (some centres unmarked) ?
< 50 nM

Others:
Any idea what DC50 was measured for Cc1ncsc1-c1ccc(CNC(=O)[C@@H]2C[C@@H](O)CN2C(=O)[C@@H](NC(=O)COCCC2CCN(CCOc3ccc(N4C(=S)N(c5ccc(C#N)c(C(F)(F)F)c5)C(=O)C4(C)C)cc3)CC2)C(C)(C)C)cc1 ?
51 to 500 nM

Any idea what DC50 was measured for CC(C)(C)[C@H](NC(=O)COCCCOCCCCOc1ccc(N2C(=S)N(c3ccc(C#N)c(Cl)c3)C(=O)C2(C)C)cc1)C(=O)N1C[C@H](O)C[C@H]1C(=O)NCc1ccc(-c2cnco2)cc1 ?
< 50 nM

* * *

- ASSAYED TARGET: Androgen Receptor (Homo sapiens)
- Construct: endogenous in cells; host or cells: VCaP cells
- Sequence (P10275 1-920): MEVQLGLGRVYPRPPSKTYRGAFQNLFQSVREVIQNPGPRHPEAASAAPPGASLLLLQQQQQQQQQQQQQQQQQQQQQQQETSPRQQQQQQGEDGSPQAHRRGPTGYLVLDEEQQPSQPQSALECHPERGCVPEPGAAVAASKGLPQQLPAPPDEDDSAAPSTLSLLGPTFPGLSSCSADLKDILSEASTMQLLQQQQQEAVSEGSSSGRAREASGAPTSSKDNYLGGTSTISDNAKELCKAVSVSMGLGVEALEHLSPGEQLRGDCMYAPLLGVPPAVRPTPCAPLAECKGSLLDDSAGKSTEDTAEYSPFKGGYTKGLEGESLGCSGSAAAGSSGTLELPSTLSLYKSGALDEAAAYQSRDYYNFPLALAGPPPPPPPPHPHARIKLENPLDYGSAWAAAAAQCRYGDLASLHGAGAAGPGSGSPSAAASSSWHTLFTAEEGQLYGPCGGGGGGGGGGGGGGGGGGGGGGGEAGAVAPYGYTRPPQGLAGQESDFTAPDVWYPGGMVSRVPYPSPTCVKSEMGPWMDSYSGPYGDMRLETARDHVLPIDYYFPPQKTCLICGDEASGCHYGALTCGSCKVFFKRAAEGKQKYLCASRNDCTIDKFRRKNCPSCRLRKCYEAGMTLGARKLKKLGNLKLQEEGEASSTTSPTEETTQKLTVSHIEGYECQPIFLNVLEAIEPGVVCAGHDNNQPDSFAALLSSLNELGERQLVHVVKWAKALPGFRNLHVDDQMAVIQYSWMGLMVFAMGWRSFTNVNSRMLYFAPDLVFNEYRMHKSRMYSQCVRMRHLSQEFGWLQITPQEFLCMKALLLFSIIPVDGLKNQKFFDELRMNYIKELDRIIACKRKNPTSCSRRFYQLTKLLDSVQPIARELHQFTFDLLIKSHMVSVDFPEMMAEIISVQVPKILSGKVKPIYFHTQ
- TEST METHOD NOTES: Androgen Receptor ELISA assay (PathScan AR ELISA) in VCaP cells: AR degradation, Dmax and DC50
- Format: cell-based
- STUDY CONDITIONS: VCaP, VCaP cells; Table 36; read-out: VCaP Dmax (%)
Here, each record is paired with measured Dmax data.

// known answers, use as guide
Query the reported Dmax for Androgen Receptor (Homo sapiens); item: Cc1ncsc1-c1ccc([C@H](C)NC(=O)C2C[C@@H](O)CN2C(=O)C(NC(=O)CN2CCN(CCCCc3ccc(C(=O)N[C@H]4C(C)(C)[C@H](Oc5ccc(C#N)c(C(F)(F)F)c5)C4(C)C)cc3)CC2)C(C)(C)C)cc1 (some centres unmarked)
> 71%

Query the reported Dmax for Androgen Receptor (Homo sapiens); item: Cc1ncsc1-c1ccc([C@H](C)NC(=O)[C@@H]2C[C@@H](O)CN2C(=O)[C@H](c2ncc(CCCCCNc3ccc(C(=O)N[C@H]4C(C)(C)[C@H](Oc5ccc(C#N)c(Cl)c5)C4(C)C)nc3)n2C)C(C)C)cc1
< 25%

Query the reported Dmax for Androgen Receptor (Homo sapiens); item: Cc1ncsc1-c1ccc([C@H](C)NC(=O)[C@@H]2C[C@@H](O)CN2C(=O)[C@@H](NC(=O)CN2CCN(CCCc3ccc(C(=O)N[C@H]4C(C)(C)[C@H](Oc5ccc(C#N)c(Cl)c5)C4(C)C)cc3)CC2)C(C)(C)C)cc1
> 71%

Query the reported Dmax for Androgen Receptor (Homo sapiens); item: Cc1nccn1-c1ccc([C@H](C)NC(=O)C2C[C@@H](O)CN2C(=O)C(NC(=O)COCC2CCN(c3ccc(C(=O)N[C@H]4C(C)(C)[C@H](Oc5ccc(C#N)c(Cl)c5)C4(C)C)cn3)CC2)C(C)(C)C)cc1 (some centres unmarked)
51 to 70%

Query the reported Dmax for Androgen Receptor (Homo sapiens); item: Cc1ncsc1-c1ccc([C@H](C)NC(=O)[C@@H]2C[C@@H](O)CN2C(=O)[C@@H](C(C)C)n2cc(-c3ccnc(OC4CN(c5ccc(C(=O)N[C@H]6C(C)(C)[C@H](Oc7ccc(C#N)c(Cl)c7)C6(C)C)cn5)C4)c3)cn2)cc1
51 to 70%

Others:
Query the reported Dmax for Androgen Receptor (Homo sapiens); item: COc1cc(C#N)ccc1[C@H](C)NC(=O)[C@@H]1C[C@@H](O)CN1C(=O)[C@@H](NC(=O)COCCN1CCN(c2ccc(C(=O)N[C@H]3C(C)(C)[C@H](Oc4ccc(C#N)c(Cl)c4)C3(C)C)cn2)CC1)C(C)(C)C
51 to 70%

Query the reported Dmax for Androgen Receptor (Homo sapiens); item: CC(C)[C@@H](C(=O)N1C[C@H](O)C[C@H]1C(=O)NCc1ccc(C#N)cc1)N1Cc2ccc(N3CCN(CCCc4ccc(C(=O)N[C@H]5C(C)(C)[C@H](Oc6ccc(C#N)c(C(F)(F)F)c6)C5(C)C)cc4)CC3)cc2C1=O
< 25%

Query the reported Dmax for Androgen Receptor (Homo sapiens); item: Cc1ncsc1-c1ccc([C@H](C)NC(=O)[C@@H]2C[C@@H](O)CN2C(=O)[C@@H](NC(=O)COCCCCCNc2ccc(C(=O)N[C@H]3C(C)(C)[C@H](Oc4ccc(C#N)c(Cl)c4)C3(C)C)nc2)C(C)C)cc1
< 25%

Query the reported Dmax for Androgen Receptor (Homo sapiens); item: C[C@H](NC(=O)[C@@H]1C[C@@H](O)CN1C(=O)[C@@H](NC(=O)CN1CCN(CCCc2ccc(C(=O)N[C@H]3C(C)(C)[C@H](Oc4ccc(C#N)c(Cl)c4)C3(C)C)cc2)CC1)C(C)(C)C)c1ccc(Cl)cc1
< 25%

Query the reported Dmax for Androgen Receptor (Homo sapiens); item: Cc1ncsc1-c1ccc(C(C)NC(=O)[C@@H]2C[C@@H](O)CN2C(=O)[C@@H](N)[C@@H](C)OCCCN(C)CCc2ccc(C(=O)N[C@H]3C(C)(C)[C@H](Oc4ccc(C#N)c(Cl)c4)C3(C)C)cc2)cc1 (some centres unmarked)
< 25%

Query the reported Dmax for Androgen Receptor (Homo sapiens); item: Cc1ncsc1-c1ccc([C@H](C)NC(=O)[C@@H]2C[C@@H](O)CN2C(=O)[C@@H](NC(=O)CCCCCCCc2ccc(C(=O)N[C@H]3C(C)(C)[C@H](Oc4ccc(C#N)c(Cl)c4)C3(C)C)cc2)C(C)(C)C)cc1
> 71%

* * *

- ASSAYED TARGET: Androgen Receptor (Homo sapiens, UniProt P10275)
- Construct: endogenous in cells; host or cells: VCaP cells
- Sequence (P10275 1-920): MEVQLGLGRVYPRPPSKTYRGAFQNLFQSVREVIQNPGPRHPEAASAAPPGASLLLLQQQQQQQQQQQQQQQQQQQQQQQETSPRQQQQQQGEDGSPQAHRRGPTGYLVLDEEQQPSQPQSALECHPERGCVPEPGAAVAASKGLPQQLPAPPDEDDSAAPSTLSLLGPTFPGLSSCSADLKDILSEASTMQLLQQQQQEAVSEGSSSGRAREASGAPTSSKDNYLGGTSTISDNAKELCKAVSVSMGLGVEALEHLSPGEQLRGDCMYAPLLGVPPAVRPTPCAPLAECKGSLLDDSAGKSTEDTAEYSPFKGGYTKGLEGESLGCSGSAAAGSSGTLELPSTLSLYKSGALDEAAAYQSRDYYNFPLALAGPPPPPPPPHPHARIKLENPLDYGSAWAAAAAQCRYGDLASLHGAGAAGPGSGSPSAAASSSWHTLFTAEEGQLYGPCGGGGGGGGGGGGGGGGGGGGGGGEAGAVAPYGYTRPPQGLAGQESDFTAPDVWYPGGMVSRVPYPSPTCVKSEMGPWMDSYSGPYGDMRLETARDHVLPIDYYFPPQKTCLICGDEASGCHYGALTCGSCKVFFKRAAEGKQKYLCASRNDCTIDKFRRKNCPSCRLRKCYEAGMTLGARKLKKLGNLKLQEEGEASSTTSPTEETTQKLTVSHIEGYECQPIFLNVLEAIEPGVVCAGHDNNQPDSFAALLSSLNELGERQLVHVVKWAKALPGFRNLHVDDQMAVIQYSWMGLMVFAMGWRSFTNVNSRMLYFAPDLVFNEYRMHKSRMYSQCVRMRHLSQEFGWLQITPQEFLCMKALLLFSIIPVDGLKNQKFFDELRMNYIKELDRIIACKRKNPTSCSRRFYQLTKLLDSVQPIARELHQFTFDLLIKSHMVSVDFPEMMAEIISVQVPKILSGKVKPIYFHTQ
- TEST METHOD NOTES: Androgen Receptor ELISA assay (PathScan AR ELISA) in VCaP cells: AR degradation, Dmax and DC50
- Format: cell-based
- STUDY CONDITIONS: VCaP cells; Table 35; read-out: VCaP DC50
ENDPOINT NAME: DC50

// known answers, use as guide
Any idea what DC50 was measured for Cc1ncsc1-c1ccc([C@H](C)NC(=O)[C@@H]2C[C@@H](O)CN2C(=O)[C@@H](NC(=O)COCC2CCN(c3ccc(C(=O)N[C@H]4C(C)(C)[C@H](Oc5ccc(C#N)c(Cl)c5)C4(C)C)cc3)CC2)C(C)(C)C)cc1 [Example 447] ?
< 50 nM

Any idea what DC50 was measured for CC(C)(C)[C@H](NC(=O)COCCCCCNc1ccc(C(=O)N[C@H]2C(C)(C)[C@H](Oc3ccc(C#N)c(Cl)c3)C2(C)C)cc1)C(=O)N1C[C@H](O)C[C@H]1C(=O)NCc1ccc(-c2scnc2C2CC2)cc1 [Example 555] ?
< 50 nM

Any idea what DC50 was measured for CC(C)(C)[C@H](NC(=O)COCCCCCNc1ccc(C(=O)N[C@H]2C(C)(C)[C@H](Oc3ccc(C#N)c(Cl)c3)C2(C)C)cc1)C(=O)N1C[C@H](O)C[C@H]1C(=O)NCc1ccc(-c2nnc[nH]2)cc1 [Example 528] ?
< 50 nM

Any idea what DC50 was measured for CC(C)(C)[C@H](NC(=O)COCCCCCOc1ccc(C(=O)N[C@H]2C(C)(C)[C@H](Oc3ccc(C#N)c(Cl)c3)C2(C)C)cc1)C(=O)N1C[C@H](O)C[C@H]1C(=O)O [Example 509] ?
51 to 500 nM

Any idea what DC50 was measured for Cc1ncsc1-c1ccc([C@H](C)NC(=O)[C@@H]2C[C@@H](O)CN2C(=O)[C@@H](NC(=O)COCCC2CCN(c3ccc(C(=O)N[C@H]4C(C)(C)[C@H](Oc5ccc(C#N)c(Cl)c5)C4(C)C)cc3)CC2)C(C)(C)C)cc1 [Example 456] ?
< 50 nM

Others:
Any idea what DC50 was measured for CC(C)(C)[C@H](NC(=O)COCCCCCNc1ccc(C(=O)N[C@H]2C(C)(C)[C@H](Oc3ccc(C#N)c(Cl)c3)C2(C)C)cc1)C(=O)N1C[C@H](O)C[C@H]1C(=O)NCc1ccc(C(=O)O)cc1 [Example 512] ?
51 to 500 nM

Any idea what DC50 was measured for Cc1ncsc1-c1ccc([C@H](C)NC(=O)[C@@H]2C[C@@H](O)CN2C(=O)[C@@H](NC(=O)COCCCCCNc2ccc(C(=O)N(C)[C@H]3C(C)(C)[C@H](Oc4ccc(C#N)c(Cl)c4)C3(C)C)cc2)C(C)(C)C)cc1 [Example 473] ?
< 50 nM

Any idea what DC50 was measured for Cc1ncsc1-c1ccc([C@H](C)NC(=O)[C@@H]2C[C@@H](O)CN2C(=O)[C@@H](NC(=O)CNC(=O)c2ccc(Oc3ccc(C(=O)N[C@H]4C(C)(C)[C@H](Oc5ccc(C#N)c(Cl)c5)C4(C)C)cn3)cc2)C(C)(C)C)cc1 [Example 448] ?
< 50 nM

Any idea what DC50 was measured for Cc1ncsc1-c1ccc([C@@H](CN2CCCC2)NC(=O)[C@@H]2C[C@@H](O)CN2C(=O)[C@@H](NC(=O)COCCCCCOc2ccc(C(=O)N[C@H]3C(C)(C)[C@H](Oc4ccc(C#N)c(Cl)c4)C3(C)C)cc2)C(C)(C)C)cc1 [Example 466] ?
51 to 500 nM

Any idea what DC50 was measured for Cc1ncsc1-c1ccc([C@H](C)NC(=O)[C@@H]2C[C@@H](O)CN2C(=O)[C@H](NC(=O)COCCCCCNc2ccc(C(=O)N[C@H]3C(C)(C)[C@H](Oc4ccc(C#N)c(Cl)c4)C3(C)C)cc2)C(C)(C)C)cc1 [Example 457] ?
> 501 nM

Any idea what DC50 was measured for Cc1ncsc1-c1ccc([C@H](C)NC(=O)[C@@H]2CC(OC(=O)[C@@H]3CCCN3)CN2C(=O)[C@@H](NC(=O)COCCCCCNc2ccc(C(=O)N[C@H]3C(C)(C)[C@H](Oc4ccc(C#N)c(Cl)c4)C3(C)C)cc2)C(C)(C)C)cc1 (stereo partly drawn) [Example 461] ?
< 50 nM

Any idea what DC50 was measured for CNC(=O)[C@@H]1C[C@@H](O)CN1C(=O)[C@@H](NC(=O)COCCCCCOc1ccc(C(=O)N[C@H]2C(C)(C)[C@H](Oc3ccc(C#N)c(Cl)c3)C2(C)C)cc1)C(C)(C)C [Example 507] ?
< 50 nM
